# METHOD_DESCRIPTION: Hydrodynamic diameter and colloidal stability of aggregates by dynamic light scattering
# Type: physicochemical
# EXPERIMENTAL_CONTEXT: 1.25 μM in PBS from DMSO stock, 37 °C
Listed here are compounds together with their documented zeta potential.
PROPERTY: zeta potential (mV)

CC1=C(/C=C/C(C)=C/C=C/C(C)=C/C=C/C=C(C)/C=C/C=C(\C)COC(=O)CCC(=O)O)C(C)(C)CCC1 [Compound 6, 8′-Apo-β-carotenol succinate] : −17.7
CC1=C[C@H](OC(=O)CCC(=O)O)CC(C)(C)[C@H]1/C=C/C(C)=C/C=C/C(C)=C/C=C/C=C(C)/C=C/C=C(C)/C=C/C1=C(C)C[C@@H](OC(=O)CCC(=O)O)CC1(C)C [Compound 10, Lutein bissuccinate] : 89.6
COc1ccc2[nH]cc(CCNC(=O)CNC(=O)CCC(=O)O[C@@H]3CC(C)=C(/C=C/C(C)=C/C=C/C(C)=C/C=C/C=C(C)/C=C/C=C(C)/C=C/C4=C(C)C[C@@H](OC(=O)CCC(=O)NCC(=O)NCCc5c[nH]c6ccc(OC)cc56)CC4(C)C)C(C)(C)C3)c2c1 [Compound 14, Zeaxanthin-bismelatonin conjugate] : −1.0

====

Form field: zeta potential (one value per entry).
# METHOD_DESCRIPTION: Hydrodynamic diameter and colloidal stability of aggregates by dynamic light scattering
# Type: physicochemical
# EXPERIMENTAL_CONTEXT: 5 μM in PBS from DMSO stock, 37 °C
PROPERTY: zeta potential (mV)

COc1ccc2[nH]cc(CCNC(=O)CNC(=O)CCC(=O)O[C@@H]3CC(C)=C(/C=C/C(C)=C/C=C/C(C)=C/C=C/C=C(C)/C=C/C=C(C)/C=C/C(=O)[C@]4(C)C[C@@H](OC(=O)CCC(=O)NCC(=O)NCCc5c[nH]c6ccc(OC)cc56)CC4(C)C)C(C)(C)C3)c2c1 [Compound 17, Capsanthin-dimelatonin conjugate] : −27.0
CC1=C(/C=C/C(C)=C/C=C/C(C)=C/C=C/C=C(C)/C=C/C=C(C)/C=C/C(=O)[C@]2(C)C[C@@H](OC(=O)CCC(=O)O)CC2(C)C)C(C)(C)C[C@H](OC(=O)CCC(=O)O)C1 [Compound 9, Capsanthin bissuccinate] : 0.0
CC1=C(/C=C/C(C)=C/C=C/C(C)=C/C=C/C=C(C)/C=C/C=C(C)/C=C/C2=C(C)C[C@@H](OC(=O)CCC(=O)O)CC2(C)C)C(C)(C)CCC1 [Compound 8, β-Cryptoxanthin succinate] : −0.01
COc1ccc2[nH]cc(CCNC(=O)CNC(=O)CCC(=O)O[C@@H]3CC(C)=C(/C=C/C(C)=C/C=C/C(C)=C/C=C/C=C(C)/C=C/C=C(C)/C=C/C4=C(C)C[C@@H](OC(=O)CCC(=O)NCC(=O)NCCc5c[nH]c6ccc(OC)cc56)CC4(C)C)C(C)(C)C3)c2c1 [Compound 14, Zeaxanthin-bismelatonin conjugate] : 0.0
COc1ccc2[nH]cc(CCNC(=O)CNC(=O)CCC(=O)O[C@@H]3CC(C)=C(/C=C/C(C)=C/C=C/C(C)=C/C=C/C=C(C)/C=C/C=C(C)/C=C/C4C(C)=C[C@@H](OC(=O)CCC(=O)NCC(=O)NCCc5c[nH]c6ccc(OC)cc56)CC4(C)C)C(C)(C)C3)c2c1 (stereo partly drawn) [Compound 16, Lutein-bismelatonin conjugate] : −0.5
CC1=C(/C=C/C(C)=C/C=C/C(C)=C/C=C/C=C(C)/C=C/C=C(C)/C=C/C2=C(C)C[C@@H](OC(=O)CCC(=O)O)CC2(C)C)C(C)(C)C[C@H](O)C1 [Compound 11, Zeaxanthin monossuccinate] : −23.5
